EXPERIMENT DESCRIPTION: Caspase-3/7 induction in CHO-K1 cells by small molecules, qHTS cell viability counter screen (AID 1346979); further: nearly all actives have a fitted effect of over 35% in size
CONDITION DETAILS: CellTiter-Fluor fluorescence, 17 h; series mostly up to 92.4 µM
Results filed as inconclusive are left out. Calls of active or inactive are those of the source. The call rests on the fitted dose curve; in most records, active means well fitted cell-killing curve with a large enough effect in the repeat runs; inconclusive means weak or mixed curves, or effect the other way; inactive means no such curve, though single readings can be large or run the other way.
Labels: active, inactive

N#CC(CCc1ccc(Cl)cc1)(Cn1cncn1)c1ccccc1 (centres undefined) ... active
Cc1coc2c1CCC(C)C2 (centres undefined) ... inactive
CCCCOC(=O)c1ccccc1C(=O)O ... inactive
CCCCc1c(C)nc(NCC)[nH]c1=O ... inactive
COc1cc(OC)nc(NC(=O)NS(=O)(=O)c2ncccc2OCC(F)(F)F)n1 ... inactive
CC1=NNC(=O)N(/N=C/c2cccnc2)C1 ... inactive
COP(N)(=S)Oc1ccccc1C(=O)OC(C)C (centres undefined) ... inactive
O=C(O)c1cccc(Cl)c1 ... inactive
N#Cc1c(Cl)cccc1Cl ... inactive
CNC(=O)N(C)c1nc2ccccc2s1 ... inactive
COCC(=O)N(c1c(C)cccc1C)N1CCOC1=O ... inactive
Cc1ncsc1CCCl ... inactive
N#Cc1ccncc1 ... inactive
COC(=O)c1c(C(F)F)nc(C(F)(F)F)c(C2=NCCS2)c1CC(C)C ... inactive

---

EXPERIMENT DESCRIPTION: qHTS RealTime-Glo MT Cell Viability Assay in HEK293 cells - 32 hour (AID 1224868); further: nearly all actives have a fitted effect of over 50% in size
CONDITION DETAILS: RealTime-Glo luminescence; series mostly up to 76.8 µM
Records with an inconclusive call do not appear. Calls of active or inactive are those of the source. Calls come from the whole dose curve; as a rule, active = well fitted cell-killing curve with a large enough effect in the repeat runs; inconclusive = weak or mixed curves, or effect the other way; inactive = flat fitted curve, though single readings scatter.
Labels: class 1 for active, class 0 for inactive

CCCCCCI ... class 0
C#CCN1C(=O)COc2cc(F)c(N3C(=O)C4=C(CCCC4)C3=O)cc21 ... class 0
CNC(=O)Oc1cccc(C(C)C)c1 ... class 0
COc1cc(OC)nc(NC(=O)NS(=O)(=O)c2ncccc2C(=O)N(C)C)n1 ... class 0
CN1C[C@@H](NS(=O)(=O)N(C)C)C[C@@H]2c3cccc4c3c(cn4C)C[C@H]21 ... class 0
O=C(Cc1ccccc1)OCc1ccccc1 ... class 0
O=c1oc2ccccc2c(O)c1C1CCCc2ccccc21 (stereo not drawn) ... class 0
CCCSP(=S)(OCC)Oc1ccc(Cl)cc1Cl (stereo not drawn) ... class 0
CC(=O)C(Cl)Cl ... class 0
CNC(=O)N(C)c1nc2ccccc2s1 ... class 0
Nc1cc2c3c(c1)C(c1ccccc1)=N[C@@H](NC(=O)c1cccnc1)C(=O)N3CC2 ... class 0
O=P(O)(Oc1ccccc1)Oc1ccccc1 ... class 0
Fc1ccc(C2(Cn3cncn3)OC2c2ccccc2Cl)cc1 (stereo not drawn) ... class 1
NC(=O)c1cc([N+](=O)[O-])cc([N+](=O)[O-])c1 ... class 0
CNC(=O)Oc1c(C(C)(C)C)cc(C)cc1C(C)(C)C ... class 0
CCOc1nc(C(Cl)(Cl)Cl)ns1 ... class 0
c1cc[c]([Hg][c]2ccccc2)cc1 ... class 1
CS(=O)(=O)c1cc(C(F)(F)F)ccc1C(=O)c1cnoc1C1CC1 ... class 0

---

EXPERIMENT DESCRIPTION: A CellTox Green Cytotoxicity Assay to monitor cytotoxicity in HepG2 cells - 32 hour (AID 1224883); further: nearly all actives have a fitted effect of over 50% in size
CONDITION DETAILS: CellTox Green fluorescence; series mostly up to 76.8 µM
Records with an inconclusive call do not appear. Calls of active or inactive are those of the source. Calls come from the whole dose curve; as a rule, active = well fitted activation curve with a large enough effect in the repeat runs; inconclusive = weak or mixed curves; inactive = flat fitted curve, though single readings scatter.
Labels: true for active, false for inactive

COC(=O)C(c1ccccc1)C1CCCCN1 (stereo not given) ... false
CCOC(=O)C(c1c(O)c2ccccc2oc1=O)c1c(O)c2ccccc2oc1=O ... false
O=C1OC(CCN2CCCCC2)OC1(c1ccccc1)c1ccccc1 (stereo not given) ... false
Nc1cc2c3c(c1)C(c1ccccc1)=N[C@@H](NC(=O)c1cccnc1)C(=O)N3CC2 ... false
CCCSP(=O)(OCC)Oc1ccc(Br)cc1Cl (stereo not given) ... false
CCCSC(=O)N(CCC)CCC ... false
Cc1ncc(CNC(=O)N(CCCl)N=O)c(N)n1 ... false
CN1C[C@@H](NS(=O)(=O)N(C)C)C[C@@H]2c3cccc4c3c(cn4C)C[C@H]21 ... false
COC(=O)c1ccccc1S(=O)(=O)NC(=O)Nc1nc(C)cc(C)n1 ... false
CCSC(=O)N(CC)C1CCCCC1 ... false
CCCCCCI ... false
CC(C)CC#N ... false
CC(C)COP(=O)(OCC(C)C)OCC(C)C ... false
CC1CN1P(=O)(N1CC1C)N1CC1C (stereo not given) ... false
O=[N+]([O-])c1cccc2c([N+](=O)[O-])cccc12 ... false
O=[N+]([O-])c1cc(Cl)c(Cl)c(Cl)c1 ... false
N#CC(CCc1ccc(Cl)cc1)(Cn1cncn1)c1ccccc1 (stereo not given) ... true
CCN(CC)C(C)C(=O)c1ccccc1 (stereo not given) ... false
Cc1ncsc1CCCl ... false
O=C(NCO)NCO ... false
CC(C)(C)OC(=O)c1ncn2c1[C@@H]1CCCN1C(=O)c1c(Br)cccc1-2 ... false
CC(Oc1ccc(Oc2ncc(C(F)(F)F)cc2Cl)cc1)C(=O)O (stereo not given) ... false
OC(Cn1cncn1)(c1ccc(F)cc1)c1ccccc1F (stereo not given) ... false
CCCCOP(=O)(O)OCCCC ... false
C[C@]12CC[C@H]3[C@@H](CCC4=CC(=O)CC[C@@]43C)[C@@H]1CC[C@@H]2C(=O)O ... false
CC1(C)COP(Oc2ccccc2)OC1 ... false
CC(C)NCC(O)c1ccc(N)c(C#N)c1 (stereo not given) ... false
CCCCOC(=O)c1ccccc1C(=O)O ... false
CCC(C)(C)c1cc(-n2nc3ccccc3n2)c(O)c(C(C)(C)CC)c1 ... false
CCCCCCBr ... false
CC(=O)Nc1cc([As](=O)(O)O)ccc1O ... false
CN(N=O)C(N)=O ... false
COc1ccc2c(c1OC)CN1CCc3cc4c(cc3C1C2)OCO4 (stereo not given) ... false
CCOP(=O)(N=C1SCCS1)OCC ... false
CC(C)[N+](=O)[O-] ... false
